Here the recorded phosphorylation enrichment is given for each entry.
Target: Fyn (UniProt P06241)
Sequence (P06241 whole entry, looked up): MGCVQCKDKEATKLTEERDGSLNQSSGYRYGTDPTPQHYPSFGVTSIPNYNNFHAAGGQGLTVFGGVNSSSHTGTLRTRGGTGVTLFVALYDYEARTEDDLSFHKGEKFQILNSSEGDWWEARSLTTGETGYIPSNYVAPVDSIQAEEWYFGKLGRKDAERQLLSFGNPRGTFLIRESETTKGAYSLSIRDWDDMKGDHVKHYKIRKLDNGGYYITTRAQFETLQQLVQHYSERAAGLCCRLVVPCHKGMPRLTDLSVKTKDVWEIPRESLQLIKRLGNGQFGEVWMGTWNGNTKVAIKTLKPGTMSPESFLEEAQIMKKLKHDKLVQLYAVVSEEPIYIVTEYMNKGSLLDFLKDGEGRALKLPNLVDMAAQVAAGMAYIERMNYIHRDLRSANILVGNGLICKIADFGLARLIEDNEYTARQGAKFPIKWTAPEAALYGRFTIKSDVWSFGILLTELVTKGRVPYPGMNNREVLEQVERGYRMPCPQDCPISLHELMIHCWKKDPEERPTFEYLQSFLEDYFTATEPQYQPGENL
Assay: phosphorylation enrichment, bacterial display (enrichment ratio); higher = better substrate or ligand; peptides without Tyr show the background;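 further: 11-residue human phosphosite peptides and single-mutation variants displayed on the E. coli surface, counted by deep sequencing, each peptide's frequency after selection divided by its frequency in the unselected input library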;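 further: frequency after pTyr selection over input frequency; kinase dosed for 20-30% of maximal phosphorylation in three min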
Enter a number only.

1) REDIFYTSKLW [AKR1C2_Y81] | 0.692
2) IDDNQYAFLKA [HNF4A_Y286_E285Q_YF] | 0.604
3) EERNPYYSSAR [MCCC2_Y520_G517R] | 0.654
4) GTHCHYKAPIV [FZD9_Y569_T573I] | 0.428
5) GLCSFYETSKM [MAGED2_Y449_R446C_YF] | 0.652
6) VPLATYMRIFK [RPL21_Y30_YF] | 0.462
7) TTPGPHRSIFF [MPG_Y71_Y71H_YF] | 0.398
8) KPNMNYDKLSW [FLI1_Y332_R337W] | 0.486
9) NYCPGYNNFYN [USH2A_Y467_R464C] | 0.64
10) AIFEGYALPHA [ACTC1_Y171_P166A_YF] | 0.472

phosphorylation enrichment for KILPEYLSNWT [AIFM1_Y347] is 0.463

phosphorylation enrichment for ECKLLYSQKEG [PTPN11_Y263_R265Q] is 0.489

phosphorylation enrichment for GIVKAYYVHAR [AIPL1_Y267_R270H] is 0.418
